Experiment: CCTE_Mundy_HCI_Cortical_Synap_Neur_Matur_NeuriteSpotCountPerNeuron: CCTE's Synaptogenesis and Neurite Maturation Assay in rat cortical cells for Neurite Spot Count per Neuron Count, Mundy Lab (AID 2284215)
Activity calls are given as the source filed them. The calls were made as follows: active = hit-call score of the fitted dose curve at least 0.9, where 1 is the maximum; inactive = score below 0.9.
Your response should consist of one outcome taken from t = active, f = inactive

For orientation, consider the following solved cases.
>  <compound>
Cn1nc(C(F)(F)F)c(CS(=O)(=O)C2=NOC(C)(C)C2)c1OC(F)F

>  <discrete.label>
t

$$$$
>  <compound>
CCOP(=O)(OCC)SCSC(C)(C)C

>  <discrete.label>
f

$$$$

*Q* Tell me the assay call for CC(=O)[O-].CC(=O)[O-].O.O.O.[Pb+2] please.
*A* f

*Q* Could you kindly confirm the outcome this assay logged for CC1(C)C(C=C(Cl)Cl)C1C(=O)O[C@H](C#N)c1cccc(Oc2ccccc2)c1 (some centres not stated) ?
*A* t

*Q* Entry C[C@H](N)Cc1ccccc1 : call = ?
*A* f

*Q* Outcome? [CH3][Sn]([CH3])[CH3]
*A* t

*Q* Answer briefly: the call reported for CCOP(=O)(Oc1cnc(C(C)(C)C)nc1)OC(C)C (configuration not stated) in this assay.
*A* f
